target: Kappa-type opioid receptor (Homo sapiens); assay: Agonist activity at human kappa opioid receptor expressed in CHO-K1 cells assessed as inhibition of forskolin-stimulated cAMP accumulation by HitHunter assay based luminescence analysis relative to control; format: functional, cell-based; conditions: filed as agonist
Sequence (P41145 whole entry): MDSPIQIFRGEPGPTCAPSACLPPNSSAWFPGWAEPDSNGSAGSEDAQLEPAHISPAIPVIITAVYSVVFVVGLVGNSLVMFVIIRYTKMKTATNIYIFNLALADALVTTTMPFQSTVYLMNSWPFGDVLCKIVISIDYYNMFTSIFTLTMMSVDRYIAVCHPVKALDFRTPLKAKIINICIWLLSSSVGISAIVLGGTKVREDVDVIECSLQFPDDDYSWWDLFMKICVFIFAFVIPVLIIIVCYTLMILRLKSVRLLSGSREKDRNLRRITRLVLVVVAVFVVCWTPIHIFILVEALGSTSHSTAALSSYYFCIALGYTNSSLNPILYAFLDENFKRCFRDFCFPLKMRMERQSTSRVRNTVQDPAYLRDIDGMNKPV
Answer each item with its documented Emax.
Dear colleague, please return just the value in %, with no unit written.

Consider the molecule shown here: C/C=C1/CN2CC[C@]34c5cc(I)ccc5NC3C(C(=O)OC)[C@H]1C[C@H]24 (some centres undefined) What is its recorded Emax?
100

Another molecule to check: C/C=C1/CN2CC[C@]34C(=C(C(=O)OC)[C@H]1C[C@H]23)Nc1ccc([N+](=O)[O-])cc14
96

Another molecule to check: C/C=C1/CN2CC[C@]34C(=C(C(=O)OC)[C@H]1C[C@H]23)Nc1ccc(-c2ccsc2)cc14
104

Another molecule to check: C=CC[N+]12CC[C@]34C(=C(C(=O)OC)[C@@H](C[C@@H]31)/C(=C\C)C2)Nc1ccc(Br)cc14 (some centres undefined)
100

Another molecule to check: CC[C@@H]1CN2CC[C@]34C(=C(C(=O)OC)[C@H]1C[C@H]23)Nc1ccccc14
99

Another molecule to check: C/C=C1/CN2CC[C@]34C(=C(C(=O)OC)[C@H]1C[C@H]23)Nc1ccc(-c2ccccc2)cc14
101

Another molecule to check: C/C=C1/C[N+]2(C)CC[C@]34C(=C(C(=O)OC)[C@H]1C[C@@H]32)Nc1ccc(Br)cc14 (some centres undefined)
102

Another molecule to check: C/C=C1/C[N+]2(CC3CC3)CC[C@]34C(=C(C(=O)OC)[C@H]1C[C@@H]32)Nc1ccccc14 (some centres undefined)
113

Another molecule to check: C/C=C1/C[N+]2(CC3CC3)CC[C@]34C(=C(C(=O)OC)[C@H]1C[C@@H]32)Nc1ccc(Br)cc14 (some centres undefined)
94
